target-or-test-system: T1, Human CD3eg linker (human)
T1 construct: Single chain: epsilon and gamma subunits of human CD3 joined by a 29-mer linker, Flag-tag at the C-terminus; also called recombinant human CD3
T1 chain: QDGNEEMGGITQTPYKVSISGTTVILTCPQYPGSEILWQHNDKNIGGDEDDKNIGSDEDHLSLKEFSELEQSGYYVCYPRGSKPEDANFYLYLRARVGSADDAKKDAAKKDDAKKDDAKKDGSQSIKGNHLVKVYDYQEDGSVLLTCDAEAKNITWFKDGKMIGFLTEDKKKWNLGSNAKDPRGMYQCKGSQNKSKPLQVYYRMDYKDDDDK
experiment: Biacore SPR, vs template H183/L072
What fold change of affinity was measured for each of the following?
Give bare numbers, in fold.

Could I get fold change of affinity for every one of these entries?
1. H183/L072 VH H35L (antibody, name in Kabat numbering, V domains shown) VH: QVQLVESGGGLVQPGRSLRLSCAASGFTFSNAWMLWVRQAPGKGLEWVAQIKDKGNAYAAYYAPSVKGRFTISRDDSKNSIYLQMNSLKTEDTAVYYCHYVHYASASTVLPAFGVDAWGQGTTVTVSS VL: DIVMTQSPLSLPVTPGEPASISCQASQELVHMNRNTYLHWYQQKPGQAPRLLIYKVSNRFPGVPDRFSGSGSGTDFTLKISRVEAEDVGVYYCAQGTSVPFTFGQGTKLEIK
2. H183/L072 VH N31G (antibody, name in Kabat numbering, V domains shown) VH: QVQLVESGGGLVQPGRSLRLSCAASGFTFSGAWMHWVRQAPGKGLEWVAQIKDKGNAYAAYYAPSVKGRFTISRDDSKNSIYLQMNSLKTEDTAVYYCHYVHYASASTVLPAFGVDAWGQGTTVTVSS VL: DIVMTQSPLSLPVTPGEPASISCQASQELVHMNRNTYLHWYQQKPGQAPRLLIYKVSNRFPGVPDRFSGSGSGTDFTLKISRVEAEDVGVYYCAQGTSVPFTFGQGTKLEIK
3. H183/L072 VH K52Q (antibody, name in Kabat numbering, V domains shown) VH: QVQLVESGGGLVQPGRSLRLSCAASGFTFSNAWMHWVRQAPGKGLEWVAQIQDKGNAYAAYYAPSVKGRFTISRDDSKNSIYLQMNSLKTEDTAVYYCHYVHYASASTVLPAFGVDAWGQGTTVTVSS VL: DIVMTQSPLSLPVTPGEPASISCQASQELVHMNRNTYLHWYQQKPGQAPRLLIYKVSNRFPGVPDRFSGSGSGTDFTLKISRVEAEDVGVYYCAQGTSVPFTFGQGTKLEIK
4. H183/L072 VH M34G (antibody, name in Kabat numbering, V domains shown) VH: QVQLVESGGGLVQPGRSLRLSCAASGFTFSNAWGHWVRQAPGKGLEWVAQIKDKGNAYAAYYAPSVKGRFTISRDDSKNSIYLQMNSLKTEDTAVYYCHYVHYASASTVLPAFGVDAWGQGTTVTVSS VL: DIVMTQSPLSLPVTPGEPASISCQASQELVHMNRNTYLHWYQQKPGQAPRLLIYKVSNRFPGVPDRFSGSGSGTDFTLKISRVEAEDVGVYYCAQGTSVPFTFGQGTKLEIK
5. H183/L072 VH A56G (antibody, name in Kabat numbering, V domains shown) VH: QVQLVESGGGLVQPGRSLRLSCAASGFTFSNAWMHWVRQAPGKGLEWVAQIKDKGNAYGAYYAPSVKGRFTISRDDSKNSIYLQMNSLKTEDTAVYYCHYVHYASASTVLPAFGVDAWGQGTTVTVSS VL: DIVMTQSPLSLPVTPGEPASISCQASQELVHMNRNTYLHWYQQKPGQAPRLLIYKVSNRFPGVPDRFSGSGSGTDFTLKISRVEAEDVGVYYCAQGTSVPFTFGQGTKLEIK

output:
0
0.3
0.3
0
0.7
